B1: RAB11B (parent)
chain: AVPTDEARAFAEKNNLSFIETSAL

# Variants of: B1
# Protocol Text: protein stability index of a GFP-peptide fusion (GPS, HEK-293T) (PSI 1-6); higher = more stable;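 also: lentivirally expressed fusions sorted by FACS into six bins by GFP to DsRed ratio, PSI derived from sequencing read proportions per bin multiplied by bin number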
# Measurement Setup: c terminus: a fixed tail appended
Parameter Measured: protein stability index

{"Variant Description": "A11C", "Parameter Measured": "protein stability index", "Reported Result": 3.16}
{"Variant Description": "D5I", "Parameter Measured": "protein stability index", "Reported Result": 2.15}
{"Variant Description": "R8F", "Parameter Measured": "protein stability index", "Reported Result": 2.69}
{"Variant Description": "S22E", "Parameter Measured": "protein stability index", "Reported Result": 4.06}
{"Variant Description": "E12G", "Parameter Measured": "protein stability index", "Reported Result": 2.16}
{"Variant Description": "E12W", "Parameter Measured": "protein stability index", "Reported Result": 1.6}
{"Variant Description": "T4Y", "Parameter Measured": "protein stability index", "Reported Result": 2.37}
{"Variant Description": "N14V", "Parameter Measured": "protein stability index", "Reported Result": 2.18}
{"Variant Description": "F10Y", "Parameter Measured": "protein stability index", "Reported Result": 3.2}
{"Variant Description": "A9V", "Parameter Measured": "protein stability index", "Reported Result": 2.71}
{"Variant Description": "A7G", "Parameter Measured": "protein stability index", "Reported Result": 3.14}
{"Variant Description": "F10G", "Parameter Measured": "protein stability index", "Reported Result": 3.12}
{"Variant Description": "R8S", "Parameter Measured": "protein stability index", "Reported Result": 2.46}
{"Variant Description": "N14K", "Parameter Measured": "protein stability index", "Reported Result": 3.38}
{"Variant Description": "S17F", "Parameter Measured": "protein stability index", "Reported Result": 2.59}
{"Variant Description": "K13I", "Parameter Measured": "protein stability index", "Reported Result": 2.09}
{"Variant Description": "D5C", "Parameter Measured": "protein stability index", "Reported Result": 2.82}
{"Variant Description": "T21E", "Parameter Measured": "protein stability index", "Reported Result": 4.67}
{"Variant Description": "L24Q", "Parameter Measured": "protein stability index", "Reported Result": 3.98}
{"Variant Description": "T21Q", "Parameter Measured": "protein stability index", "Reported Result": 4.12}
{"Variant Description": "T4A", "Parameter Measured": "protein stability index", "Reported Result": 2.45}
{"Variant Description": "A9K", "Parameter Measured": "protein stability index", "Reported Result": 1.91}
{"Variant Description": "V2S", "Parameter Measured": "protein stability index", "Reported Result": 3.09}
{"Variant Description": "K13Y", "Parameter Measured": "protein stability index", "Reported Result": 1.88}
{"Variant Description": "A23W", "Parameter Measured": "protein stability index", "Reported Result": 2.15}
{"Variant Description": "E20T", "Parameter Measured": "protein stability index", "Reported Result": 2.44}
{"Variant Description": "I19N", "Parameter Measured": "protein stability index", "Reported Result": 4.1}
{"Variant Description": "F18K", "Parameter Measured": "protein stability index", "Reported Result": 4.67}
{"Variant Description": "T21L", "Parameter Measured": "protein stability index", "Reported Result": 3.08}
{"Variant Description": "F10M", "Parameter Measured": "protein stability index", "Reported Result": 2.9}
{"Variant Description": "A7K", "Parameter Measured": "protein stability index", "Reported Result": 2.5}
{"Variant Description": "S22H", "Parameter Measured": "protein stability index", "Reported Result": 2.74}
{"Variant Description": "A23Y", "Parameter Measured": "protein stability index", "Reported Result": 2.43}
{"Variant Description": "K13F", "Parameter Measured": "protein stability index", "Reported Result": 2.49}
{"Variant Description": "R8H", "Parameter Measured": "protein stability index", "Reported Result": 2.99}
{"Variant Description": "F18V", "Parameter Measured": "protein stability index", "Reported Result": 4.71}
{"Variant Description": "K13E", "Parameter Measured": "protein stability index", "Reported Result": 3.9}
{"Variant Description": "D5N", "Parameter Measured": "protein stability index", "Reported Result": 1.92}
{"Variant Description": "A7M", "Parameter Measured": "protein stability index", "Reported Result": 2.27}
{"Variant Description": "V2E", "Parameter Measured": "protein stability index", "Reported Result": 3.96}
{"Variant Description": "A11I", "Parameter Measured": "protein stability index", "Reported Result": 2.66}
{"Variant Description": "I19E", "Parameter Measured": "protein stability index", "Reported Result": 4.59}
{"Variant Description": "T21W", "Parameter Measured": "protein stability index", "Reported Result": 2.76}
{"Variant Description": "A11L", "Parameter Measured": "protein stability index", "Reported Result": 2.4}
{"Variant Description": "E6L", "Parameter Measured": "protein stability index", "Reported Result": 2.32}
{"Variant Description": "S17P", "Parameter Measured": "protein stability index", "Reported Result": 4.19}

All values here come from the supplement of paper PMC10567573.
